Ref: ChEMBL document CHEMBL4138174

# Test system: K562
# experiment-notes: Cytotoxicity against human K562 cells assessed as reduction in cell viability after 48 hrs by MTT assay
# Type: functional, cell-based
# reported-conditions: Homo sapiens, K562, 48 h
Give pIC50 for every item shown.
# pIC50 is unitless: minus log10 of the molar concentration; print number only

Memo: CNC(=S)Nc1cc(OC)c2cc1C[C@H]1c3c(cc(OC)c(OC)c3Oc3cc4c(cc3OC)CCN(C)[C@H]4Cc3ccc(cc3)O2)CCN1C , reported pIC50: 5.13

Memo: C=C(C)C(=O)OCCNC(=O)Nc1cc(OC)c2cc1C[C@H]1c3c(cc(OC)c(OC)c3Oc3cc4c(cc3OC)CCN(C)[C@H]4Cc3ccc(cc3)O2)CCN1C , reported pIC50: 5.10

Memo: COc1cc(NC(=O)NCCCl)c2cc1Oc1ccc(cc1)C[C@H]1c3cc(c(OC)cc3CCN1C)Oc1c(OC)c(OC)cc3c1[C@H](C2)N(C)CC3 , reported pIC50: 5.20

Memo: CCCCNC(=S)Nc1cc(OC)c2cc1C[C@H]1c3c(cc(OC)c(OC)c3Oc3cc4c(cc3OC)CCN(C)[C@H]4Cc3ccc(cc3)O2)CCN1C , reported pIC50: 5.62

Memo: COc1cc(NC(=O)Nc2cccc(C)c2)c2cc1Oc1ccc(cc1)C[C@H]1c3cc(c(OC)cc3CCN1C)Oc1c(OC)c(OC)cc3c1[C@H](C2)N(C)CC3 , reported pIC50: 5.67

Memo: COc1cc(NC(=O)NCCc2ccccc2)c2cc1Oc1ccc(cc1)C[C@H]1c3cc(c(OC)cc3CCN1C)Oc1c(OC)c(OC)cc3c1[C@H](C2)N(C)CC3 , reported pIC50: 5.31

====

Give pIC50 for every item shown.
# Test system: K562
# experiment-notes: Cytotoxicity against human K562 cells assessed as reduction in cell viability after 48 hrs by MTT assay
# Format: functional, cell-based
# reported-conditions: Homo sapiens, K562, 48 h
# pIC50 is unitless: minus log10 of the molar concentration; print number only

Memo: COc1cc(NC(=S)NC(C)C)c2cc1Oc1ccc(cc1)C[C@H]1c3cc(c(OC)cc3CCN1C)Oc1c(OC)c(OC)cc3c1[C@H](C2)N(C)CC3 , reported pIC50: 5.50

Memo: COc1ccc2cc1Oc1ccc(cc1)C[C@H]1c3cc(c(OC)cc3CCN1C)Oc1c(OC)c(OC)cc3c1[C@H](C2)N(C)CC3 [FANCHININ] , reported pIC50: 4.86

Memo: CCNC(=O)Nc1cc(OC)c2cc1C[C@H]1c3c(cc(OC)c(OC)c3Oc3cc4c(cc3OC)CCN(C)[C@H]4Cc3ccc(cc3)O2)CCN1C , reported pIC50: 5.49

Memo: COc1ccc(NC(=S)Nc2cc(OC)c3cc2C[C@H]2c4c(cc(OC)c(OC)c4Oc4cc5c(cc4OC)CCN(C)[C@H]5Cc4ccc(cc4)O3)CCN2C)cc1 , reported pIC50: 5.57

Memo: COc1ccc(NC(=O)Nc2cc(OC)c3cc2C[C@H]2c4c(cc(OC)c(OC)c4Oc4cc5c(cc4OC)CCN(C)[C@H]5Cc4ccc(cc4)O3)CCN2C)cc1 , reported pIC50: 5.49

Memo: COc1cc(NC(=S)Nc2ccc(C)cc2)c2cc1Oc1ccc(cc1)C[C@H]1c3cc(c(OC)cc3CCN1C)Oc1c(OC)c(OC)cc3c1[C@H](C2)N(C)CC3 , reported pIC50: 5.65

Memo: CNC(=O)Nc1cc(OC)c2cc1C[C@H]1c3c(cc(OC)c(OC)c3Oc3cc4c(cc3OC)CCN(C)[C@H]4Cc3ccc(cc3)O2)CCN1C , reported pIC50: 5.04

Memo: COc1cc(NC(=O)N2c3ccccc3Sc3ccccc32)c2cc1Oc1ccc(cc1)C[C@H]1c3cc(c(OC)cc3CCN1C)Oc1c(OC)c(OC)cc3c1[C@H](C2)N(C)CC3 , reported pIC50: 5.60

Memo: COc1cc(NC(=O)Nc2ccc(C)cc2)c2cc1Oc1ccc(cc1)C[C@H]1c3cc(c(OC)cc3CCN1C)Oc1c(OC)c(OC)cc3c1[C@H](C2)N(C)CC3 , reported pIC50: 5.54

Memo: COc1cc(NC(=O)Nc2ccc(OC(F)(F)F)cc2)c2cc1Oc1ccc(cc1)C[C@H]1c3cc(c(OC)cc3CCN1C)Oc1c(OC)c(OC)cc3c1[C@H](C2)N(C)CC3 , reported pIC50: 5.90

Memo: COc1cc(NC(=S)Nc2ccc(F)cc2)c2cc1Oc1ccc(cc1)C[C@H]1c3cc(c(OC)cc3CCN1C)Oc1c(OC)c(OC)cc3c1[C@H](C2)N(C)CC3 , reported pIC50: 5.81

Memo: COc1cc(NC(=O)Nc2cccc3ccccc23)c2cc1Oc1ccc(cc1)C[C@H]1c3cc(c(OC)cc3CCN1C)Oc1c(OC)c(OC)cc3c1[C@H](C2)N(C)CC3 , reported pIC50: 5.71

====

# System: MDA-MB-231
# experiment-notes: Cytotoxicity against human MDA-MB-231 cells assessed as reduction in cell viability after 48 hrs by MTT assay
# Format: functional, cell-based
# reported-conditions: Homo sapiens, MDA-MB-231, 48 h
pIC50: −log10 of the molar value.
Label scheme for pIC50: lower than 5 is n, 5 and above is y.

Decide: pIC50 of COc1cc(NC(=S)Nc2ccc(Cl)cc2)c2cc1Oc1ccc(cc1)C[C@H]1c3cc(c(OC)cc3CCN1C)Oc1c(OC)c(OC)cc3c1[C@H](C2)N(C)CC3 >= 5? y

Decide: pIC50 of COc1cc(NC(=S)NC(C)C)c2cc1Oc1ccc(cc1)C[C@H]1c3cc(c(OC)cc3CCN1C)Oc1c(OC)c(OC)cc3c1[C@H](C2)N(C)CC3 >= 5? y

Decide: pIC50 of C=C(C)C(=O)OCCNC(=O)Nc1cc(OC)c2cc1C[C@H]1c3c(cc(OC)c(OC)c3Oc3cc4c(cc3OC)CCN(C)[C@H]4Cc3ccc(cc3)O2)CCN1C >= 5? n

Decide: pIC50 of COc1cc(NC(=S)Nc2ccc(C)cc2)c2cc1Oc1ccc(cc1)C[C@H]1c3cc(c(OC)cc3CCN1C)Oc1c(OC)c(OC)cc3c1[C@H](C2)N(C)CC3 >= 5? y

Decide: pIC50 of CCCNC(=O)Nc1cc(OC)c2cc1C[C@H]1c3c(cc(OC)c(OC)c3Oc3cc4c(cc3OC)CCN(C)[C@H]4Cc3ccc(cc3)O2)CCN1C >= 5? y

Decide: pIC50 of COc1cc(NC(=O)Nc2ccc(F)cc2)c2cc1Oc1ccc(cc1)C[C@H]1c3cc(c(OC)cc3CCN1C)Oc1c(OC)c(OC)cc3c1[C@H](C2)N(C)CC3 >= 5? y

Decide: pIC50 of COc1ccc2cc1Oc1ccc(cc1)C[C@H]1c3cc(c(OC)cc3CCN1C)Oc1c(OC)c(OC)cc3c1[C@H](C2)N(C)CC3 >= 5? n

Decide: pIC50 of COc1cc(NC(=O)Nc2ccc([N+](=O)[O-])cc2)c2cc1Oc1ccc(cc1)C[C@H]1c3cc(c(OC)cc3CCN1C)Oc1c(OC)c(OC)cc3c1[C@H](C2)N(C)CC3 >= 5? y

Decide: pIC50 of COc1cc(NC(=S)Nc2ccc(F)cc2)c2cc1Oc1ccc(cc1)C[C@H]1c3cc(c(OC)cc3CCN1C)Oc1c(OC)c(OC)cc3c1[C@H](C2)N(C)CC3 >= 5? y

Decide: pIC50 of CCNC(=O)Nc1cc(OC)c2cc1C[C@H]1c3c(cc(OC)c(OC)c3Oc3cc4c(cc3OC)CCN(C)[C@H]4Cc3ccc(cc3)O2)CCN1C >= 5? y

Decide: pIC50 of COc1cc(NC(=O)N2c3ccccc3Sc3ccccc32)c2cc1Oc1ccc(cc1)C[C@H]1c3cc(c(OC)cc3CCN1C)Oc1c(OC)c(OC)cc3c1[C@H](C2)N(C)CC3 >= 5? y

Decide: pIC50 of CCCCNC(=S)Nc1cc(OC)c2cc1C[C@H]1c3c(cc(OC)c(OC)c3Oc3cc4c(cc3OC)CCN(C)[C@H]4Cc3ccc(cc3)O2)CCN1C >= 5? y

Decide: pIC50 of CNC(=O)Nc1cc(OC)c2cc1C[C@H]1c3c(cc(OC)c(OC)c3Oc3cc4c(cc3OC)CCN(C)[C@H]4Cc3ccc(cc3)O2)CCN1C >= 5? n

Decide: pIC50 of COc1cc(NC(=O)NC2CCCCC2)c2cc1Oc1ccc(cc1)C[C@H]1c3cc(c(OC)cc3CCN1C)Oc1c(OC)c(OC)cc3c1[C@H](C2)N(C)CC3 >= 5? n

====

# Test system: K562
# experiment-notes: Cytotoxicity against human K562 cells assessed as reduction in cell viability after 48 hrs by MTT assay
# Assay type: functional, cell-based
# reported-conditions: Homo sapiens, K562, 48 h
Give IC50 for every item shown.
// units = µM; emit number, no label

Memo: COc1cc(NC(=O)Nc2ccc([N+](=O)[O-])cc2)c2cc1Oc1ccc(cc1)C[C@H]1c3cc(c(OC)cc3CCN1C)Oc1c(OC)c(OC)cc3c1[C@H](C2)N(C)CC3 , reported IC50: 1.84

Memo: COc1cc(NC(=O)NC2CCCC2)c2cc1Oc1ccc(cc1)C[C@H]1c3cc(c(OC)cc3CCN1C)Oc1c(OC)c(OC)cc3c1[C@H](C2)N(C)CC3 , reported IC50: 6.42

Memo: COc1cc(NC(=O)Nc2ccc(Cl)c(C(F)(F)F)c2)c2cc1Oc1ccc(cc1)C[C@H]1c3cc(c(OC)cc3CCN1C)Oc1c(OC)c(OC)cc3c1[C@H](C2)N(C)CC3 , reported IC50: 2.05

Memo: COc1cc(NC(=O)NC2CCCCC2)c2cc1Oc1ccc(cc1)C[C@H]1c3cc(c(OC)cc3CCN1C)Oc1c(OC)c(OC)cc3c1[C@H](C2)N(C)CC3 , reported IC50: 5.56

Memo: COc1cc(NC(=S)Nc2ccc(Cl)cc2)c2cc1Oc1ccc(cc1)C[C@H]1c3cc(c(OC)cc3CCN1C)Oc1c(OC)c(OC)cc3c1[C@H](C2)N(C)CC3 , reported IC50: 2.43

Memo: COc1cc(NC(=O)N2CCOCC2)c2cc1Oc1ccc(cc1)C[C@H]1c3cc(c(OC)cc3CCN1C)Oc1c(OC)c(OC)cc3c1[C@H](C2)N(C)CC3 , reported IC50: 4.33
